Kindly state Ki for each of the entries shown.
target: Rhodazain (Trypanosoma brucei rhodesiense, UniProt Q95PM0); assay: Cysteine protease inhibition, progress curve method, rhodazain; type: biochemical, Trypanosoma brucei rhodesiensi; details: Rhodazain Ki (nM), 10 uM Cbz-Leu-Arg-AMC, 100 mM Na acetate pH 5.5, 5 mM cysteine
Sequence (Q95PM0 entry or part of it): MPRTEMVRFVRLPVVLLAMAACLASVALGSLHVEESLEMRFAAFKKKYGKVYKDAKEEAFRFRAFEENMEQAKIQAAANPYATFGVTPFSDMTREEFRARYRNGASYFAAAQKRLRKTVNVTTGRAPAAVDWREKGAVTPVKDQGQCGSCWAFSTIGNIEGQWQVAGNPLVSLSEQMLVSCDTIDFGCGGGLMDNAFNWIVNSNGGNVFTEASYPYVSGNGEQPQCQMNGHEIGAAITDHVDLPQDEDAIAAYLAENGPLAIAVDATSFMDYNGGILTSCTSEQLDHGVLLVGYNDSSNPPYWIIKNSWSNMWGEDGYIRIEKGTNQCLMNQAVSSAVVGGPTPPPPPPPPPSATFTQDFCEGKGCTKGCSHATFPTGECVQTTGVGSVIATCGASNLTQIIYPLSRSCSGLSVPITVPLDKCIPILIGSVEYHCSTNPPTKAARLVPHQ
Answers are plain numbers, in nM.

# example entries with known answers
MOLECULE | MEASUREMENT_TYPE | DATA_VALUE
CC(C)C[C@H](NC(=O)c1nc(-c2ccccc2)oc1C(F)(F)F)C(=O)NC1CCCN(S(=O)(=O)c2ccccn2)CC1=O (stereo partly shown) | Ki | 9.9
CC(C)CC(NC(=O)c1ccc(F)cc1)C(=O)N[C@@H]1CCCN(S(=O)(=O)c2cccc[n+]2[O-])CC1=O (stereo partly shown) | Ki | 7.9
CC(C)C[C@@H](NC(=O)c1cc2cc(F)ccc2o1)C(=O)N[C@H]1CCCN(S(=O)(=O)c2ccccn2)CC1=O (stereo in doubt) | Ki | 6
CC(C)C[C@H](NC(=O)c1cnc2ccccc2n1)C(=O)NC1CCCN(C(=O)Nc2ccccc2F)CC1=O (stereo partly shown) | Ki | 6.7
COc1ccc2oc(C(=O)N[C@@H](CC(C)C)C(=O)N[C@H]3C[C@H](C)CN(S(=O)(=O)c4ccccn4)CC3=O)cc2c1 | Ki | 1.6

Respectfully, I request Ki for each entry included below.
1. O=C(NC(Cc1ccc2ccccc2c1)C(=O)NC1CCCN(S(=O)(=O)c2ccccn2)CC1=O)c1cccc2cccnc12 (stereo not shown)
2. CCc1c(C(=O)N[C@@H](CC(C)C)C(=O)N[C@H]2CCN(S(=O)(=O)c3cccc[n+]3[O-])CCC2=O)oc2ccccc12
3. CC(C)C[C@@H](NC(=O)c1ccc2c(c1)OCO2)C(=O)N[C@@H]1CCCN(S(=O)(=O)c2ccccn2)CC1=O (stereo in doubt)

Response line:
2.5
8.7
2.4
